Each entry below carries its recorded Apoptosis rate.
tested on: B16 melanoma cells; experiment: cell apoptosis rate, AnnexinV-FITC flow cytometry; format: cell-based; settings: 400 μM, 72 h, control set as 0% (mean ± SD)
Give just the number in %; leave the unit off.

Qu. // Input: CC(C)=CCC[C@@H](C(=O)O)[C@H]1CC[C@@]2(C)C3=C(CC[C@]12C)[C@@]1(C)CC[C@H](O)C(C)(C)[C@@H]1CC3 . Output its Apoptosis rate only.
Ans. 10.09

---
Qu. Return reported Apoptosis rate. Input molecule: C=C(C)[C@@H]1CC[C@]2(CO)CC[C@]3(C)[C@H](CC[C@@H]4[C@@]5(C)CC[C@H](O)C(C)(C)[C@@H]5CC[C@]43C)[C@@H]12
Ans. 15.31

Qu. Return the recorded Apoptosis rate value; entry: O=c1cc(CO)occ1O [kojic acid, Kojic acid, reference compound]
Ans. 15.05
